From: ChEMBL document CHEMBL1909626

# ASSAY_NOTES: Fraction unbound in plasma
# Type: ADME, cell-free
MEASURE_NAME: fraction unbound

A. O=C(CCCC1CCN(S(=O)(=O)c2ccc3ccccc3c2)CC1)NO
B. O=C(CCCC1CCN(S(=O)(=O)c2cccc3ccccc23)CC1)NO
// query // pick min by fraction unbound: A , B Answer with the label corresponding to your selection.
// result A
(A: 0.02, B: 0.03)

* * *

# STUDY_TARGET: Histone deacetylase (Homo sapiens) (UniProt Q13547+O15379+Q9UBN7+Q92769+Q9UQL6+Q8WUI4+Q9BY41+Q96DB2+P56524+Q9UKV0+Q969S8)
# ASSAY_SETUP: HeLa, at 10 µM
# Description: Inhibition of HDAC in human HeLa cell extract assessed as fluorophore release at 10 uM by fluorescence spectrophotometry
MEASURE_NAME: inhibition (%)

INSERT INTO assay_data (structure_string, test_value) VALUES
  ('COc1ccc(S(=O)(=O)N2CCC(CCCC(=O)NO)CC2)cc1OC', 84),
  ('O=C(/C=C/CC1CCN(S(=O)(=O)c2ccccc2)CC1)NO', 78),
  ('O=C(CCCC1CCN(S(=O)(=O)c2ccc(-c3ccccc3)cc2)CC1)NO', 80),
  ('O=C(CCCC1CCN(S(=O)(=O)Cc2ccccc2)CC1)NO', 71),
  ('COc1ccc(S(=O)(=O)N2CCC(CCCC(=O)NO)CC2)c(OC)c1', 83),
  ('O=C(CCCC1CCN(S(=O)(=O)c2ccccc2O)CC1)NO', 84),
  ('CC1(C)CCc2cc(S(=O)(=O)N3CCC(CCCC(=O)NO)CC3)ccc2O1', 86);

* * *

# STUDY_TARGET: Histone deacetylase (Homo sapiens) (UniProt Q13547+O15379+Q9UBN7+Q92769+Q9UQL6+Q8WUI4+Q9BY41+Q96DB2+P56524+Q9UKV0+Q969S8)
# ASSAY_SETUP: HeLa, at 10 µM
MEASURE_NAME: inhibition (%)

INSERT INTO assay_data (structure_string, measure_name, test_value) VALUES
  ('COc1cccc(S(=O)(=O)N2CCC(CCCC(=O)NO)CC2)c1', 'inhibition', 83),
  ('O=C(CCCC1CCN(S(=O)(=O)c2cccc(-c3cnco3)c2)CC1)NO', 'inhibition', 85),
  ('Cc1cccc(S(=O)(=O)N2CCC(CCCC(=O)NO)CC2)c1', 'inhibition', 83),
  ('Cc1cc(C)cc(S(=O)(=O)N2CCC(CCCC(=O)NO)CC2)c1', 'inhibition', 86),
  ('CC(C)c1ccc(S(=O)(=O)N2CCC(CCCC(=O)NO)CC2)cc1', 'inhibition', 84),
  ('O=C(CCCC1CCN(S(=O)(=O)c2ccccc2Cl)CC1)NO', 'inhibition', 86),
  ('O=C(CCCC1CCN(S(=O)(=O)c2ccccc2)CC1)NO', 'inhibition', 84),
  ('Cc1cc(S(=O)(=O)N2CCC(CCCC(=O)NO)CC2)cc2ccccc12', 'inhibition', 86),
  ('O=C(CCCC1CCN(S(=O)(=O)c2ccc3ncsc3c2)CC1)NO', 'inhibition', 84),
  ('O=C(CCCC1CCN(S(=O)(=O)c2cccc3ccccc23)CC1)NO', 'inhibition', 74),
  ('O=C(CCCC1CCN(S(=O)(=O)c2ccc3ccccc3c2)CC1)NO', 'inhibition', 86);

* * *

# STUDY_TARGET: Histone deacetylase (Homo sapiens) (UniProt Q13547+O15379+Q9UBN7+Q92769+Q9UQL6+Q8WUI4+Q9BY41+Q96DB2+P56524+Q9UKV0+Q969S8)
# ASSAY_SETUP: HeLa, at 0.1 µM
# Description: Inhibition of HDAC in human HeLa cell extract assessed as fluorophore release at 0.1 uM by fluorescence spectrophotometry
MEASURE_NAME: inhibition (%)

Worked examples follow.
INSERT INTO results (structure_string, measure_name, test_value) VALUES
  ('O=C(CCCC1CCN(S(=O)(=O)c2ccccc2C(F)(F)F)CC1)NO', 'inhibition', 30),
  ('Cc1ccccc1S(=O)(=O)N1CCC(CCCC(=O)NO)CC1', 'inhibition', 29),
  ('CN(Cc1ccccc1)S(=O)(=O)N1CCC(CCCC(=O)NO)CC1', 'inhibition', 29);

I. O=C(CCCC1CCN(S(=O)(=O)c2cccc(-c3cnco3)c2)CC1)NO
II. O=C(/C=C/CC1CCN(S(=O)(=O)c2ccccc2)CC1)NO
III. CC(C)(C)c1ccc(S(=O)(=O)N2CCC(CCCC(=O)NO)CC2)cc1
IV. O=C(CCCC1CCN(S(=O)(=O)c2cccc(C(F)(F)F)c2)CC1)NO
// query Hello, I need these entries ordered by inhibition, highest reading first. Thanks! Give the labels in the order requested.
// result I, II, IV, III
(I: 38%, II: 19%, IV: 13%, III: 9%)
